# target_system: Factor X (FX), P00742
# Sequence (P00742 whole entry, looked up): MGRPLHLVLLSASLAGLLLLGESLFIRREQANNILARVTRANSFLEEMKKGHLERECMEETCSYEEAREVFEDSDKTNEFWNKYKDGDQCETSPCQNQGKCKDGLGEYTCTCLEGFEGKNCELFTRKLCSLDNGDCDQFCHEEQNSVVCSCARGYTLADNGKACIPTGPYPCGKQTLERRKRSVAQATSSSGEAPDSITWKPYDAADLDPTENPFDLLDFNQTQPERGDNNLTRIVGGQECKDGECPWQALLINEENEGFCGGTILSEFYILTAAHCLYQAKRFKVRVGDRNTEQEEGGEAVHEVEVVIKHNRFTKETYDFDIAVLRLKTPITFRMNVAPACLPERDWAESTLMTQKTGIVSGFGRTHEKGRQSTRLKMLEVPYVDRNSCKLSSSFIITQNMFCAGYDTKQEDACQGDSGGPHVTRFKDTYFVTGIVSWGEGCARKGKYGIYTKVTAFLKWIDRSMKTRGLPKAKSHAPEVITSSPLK
So I've got a bunch of proteins here, and I need their kcat/KM for FX activation (Xase: FVIIIa, PC/PS vesicles, Ca2+) values.
# output: bare number, implied unit M⁻¹ s⁻¹

[Q] Dear colleague, please send me the reported kcat/KM for FX activation (Xase: FVIIIa, PC/PS vesicles, Ca2+) for FIXa-Y155F/K247N/N249S/R338E/T343R/R403E (protein) chain 1: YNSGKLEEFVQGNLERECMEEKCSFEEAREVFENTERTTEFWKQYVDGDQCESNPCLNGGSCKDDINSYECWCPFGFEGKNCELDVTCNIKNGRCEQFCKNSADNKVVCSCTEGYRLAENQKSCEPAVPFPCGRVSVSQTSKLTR chain 2: VVGGEDAKPGQFPWQVVLNGKVDAFCGGSIVNEKWIVTAAHCVETGVKITVVAGEHNIEETEHTEQNRSVIRIIPHHNYNAAINKYNHDIALLELDEPLVLNSYVTPICIADKEYTNIFLKFGSGYVSGWGRVFHKGRSALVLQYLRVPLVDRATCLESTKFRIYNNMFCAGFHEGGRDSCQGDSGGPHVTEVEGTSFLTGIISWGEECAMKGKYGIYTKVSEYVNWIKEKTKLT when you can.
[A] 5.9e+08

[Q] Dear colleague, please send me the reported kcat/KM for FX activation (Xase: FVIIIa, PC/PS vesicles, Ca2+) for FIXa-Y155F/R318Y/R338E/T343R (protein) chain 1: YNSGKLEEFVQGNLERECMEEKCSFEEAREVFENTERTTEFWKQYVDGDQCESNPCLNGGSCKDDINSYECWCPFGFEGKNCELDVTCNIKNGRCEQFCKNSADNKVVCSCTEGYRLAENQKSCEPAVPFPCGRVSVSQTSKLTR chain 2: VVGGEDAKPGQFPWQVVLNGKVDAFCGGSIVNEKWIVTAAHCVETGVKITVVAGEHNIEETEHTEQKRNVIRIIPHHNYNAAINKYNHDIALLELDEPLVLNSYVTPICIADKEYTNIFLKFGSGYVSGWGRVFHKGYSALVLQYLRVPLVDRATCLESTKFRIYNNMFCAGFHEGGRDSCQGDSGGPHVTEVEGTSFLTGIISWGEECAMKGKYGIYTKVSRYVNWIKEKTKLT when you can.
[A] 3.6e+08

[Q] Dear colleague, please send me the reported kcat/KM for FX activation (Xase: FVIIIa, PC/PS vesicles, Ca2+) for FIXa-Y155F/K247N/N249S/R318Y/T343R/R403E (protein) chain 1: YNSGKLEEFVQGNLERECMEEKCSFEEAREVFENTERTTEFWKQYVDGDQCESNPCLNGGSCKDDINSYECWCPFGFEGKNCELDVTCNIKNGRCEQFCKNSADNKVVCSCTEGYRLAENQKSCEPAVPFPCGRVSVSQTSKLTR chain 2: VVGGEDAKPGQFPWQVVLNGKVDAFCGGSIVNEKWIVTAAHCVETGVKITVVAGEHNIEETEHTEQNRSVIRIIPHHNYNAAINKYNHDIALLELDEPLVLNSYVTPICIADKEYTNIFLKFGSGYVSGWGRVFHKGYSALVLQYLRVPLVDRATCLRSTKFRIYNNMFCAGFHEGGRDSCQGDSGGPHVTEVEGTSFLTGIISWGEECAMKGKYGIYTKVSEYVNWIKEKTKLT when you can.
[A] 1.3e+08

[Q] Dear colleague, please send me the reported kcat/KM for FX activation (Xase: FVIIIa, PC/PS vesicles, Ca2+) for FIXa-Y155F/K247N/N249S/R338E/E410N (protein) chain 1: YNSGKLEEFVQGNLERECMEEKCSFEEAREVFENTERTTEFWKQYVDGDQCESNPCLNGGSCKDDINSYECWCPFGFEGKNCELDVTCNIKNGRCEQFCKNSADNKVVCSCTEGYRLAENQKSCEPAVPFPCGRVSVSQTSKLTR chain 2: VVGGEDAKPGQFPWQVVLNGKVDAFCGGSIVNEKWIVTAAHCVETGVKITVVAGEHNIEETEHTEQNRSVIRIIPHHNYNAAINKYNHDIALLELDEPLVLNSYVTPICIADKEYTNIFLKFGSGYVSGWGRVFHKGRSALVLQYLRVPLVDRATCLESTKFTIYNNMFCAGFHEGGRDSCQGDSGGPHVTEVEGTSFLTGIISWGEECAMKGKYGIYTKVSRYVNWIKNKTKLT when you can.
[A] 4.7e+08

Values from patent US20210238260
